// provenance: the antibiotic and cytotoxicity screens of Wong et al. (2023)

Tested on: HSkMC
ASSAY OVERVIEW: cytotoxicity call (relative viability < 0.9)
EXPERIMENTAL PARAMETERS: 10 µM
The whole screen tested about 39,000 compounds, of which about 1,500 (3.8%) were called active. What follows is part of a selection rich in actives, with near analogues and random picks from the rest.
Classes used: true = active, false = inactive

item_smiles=C[C@@H]1CCCCO[C@H](CN(C)CC2CC2)[C@H](C)CN([C@H](C)CO)C(=O)c2cc(NC(=O)C3CCCCC3)ccc2O1 class_name=false
item_smiles=C[C@@H]1CCCCO[C@@H](CN(C)S(=O)(=O)c2ccc(F)cc2)[C@@H](C)CN([C@@H](C)CO)C(=O)c2cc(NC(=O)NC3CCCCC3)ccc2O1 class_name=false
item_smiles=C[C@@H]1CCCCO[C@H](CN(C)C(=O)Nc2ccc3c(c2)OCO3)[C@@H](C)CN([C@H](C)CO)C(=O)c2cc(NC(=O)CCC(F)(F)F)ccc2O1 class_name=false
item_smiles=Cc1ccc(S(=O)(=O)N(C)C[C@H]2Oc3ccc(NS(=O)(=O)c4cccs4)cc3CC(=O)N([C@@H](C)CO)C[C@@H]2C)cc1 class_name=false
item_smiles=COc1ccc(S(=O)(=O)Nc2ccc3c(c2)C(=O)N([C@@H](C)CO)C[C@H](C)[C@@H](CN(C)C(=O)Nc2ccc(F)cc2)OCCCC[C@H](C)O3)cc1 class_name=false
item_smiles=COc1cc2c(cc1O)CCN[C@]21CS[C@@H]2c3c(OC(C)=O)c(C)c4c(c3[C@H](COC1=O)N1[C@@H]2[C@H]2c3c(cc(C)c(OC)c3O)C[C@@H]([C@@H]1O)N2C)OCO4 class_name=true

----------
Tested on: HSkMC
ASSAY OVERVIEW: cytotoxicity call (relative viability < 0.9)
EXPERIMENTAL PARAMETERS: 10 µM
Out of some 39,000 compounds screened, about 1,500 (3.8%) were called active. Many of the other results were omitted from the sample, so actives are more common in it than they were.
READOUT TYPE: cytotoxicity call

item_smiles=C=c1cc(C)ccc1=C1NN=C(NC(C)=O)O1 result=inactive
item_smiles=COCCNC(=O)C[C@@H]1CC[C@H]2[C@@H](COC[C@@H](O)CN2C(=O)Nc2ccc3c(c2)OCO3)O1 result=inactive
item_smiles=CCCNC(=O)N[C@H]1CC[C@@H](CC(=O)N2CCN(C)CC2)O[C@@H]1CO result=inactive
item_smiles=CCC(=O)N1C[C@]2(CN(C2)S(=O)(=O)C)c2c(n(c3cc(ccc23)OC)C)[C@@H]1CO result=inactive
item_smiles=C[C@@H]1CN([C@@H](C)CO)C(=O)c2cc(-c3cccc(C(=O)N(C)C)c3)cnc2O[C@@H]1CN(C)C(=O)Cc1ccccn1 result=inactive
item_smiles=C[C@H]1CCCCO[C@H](CN(C)C(=O)Nc2cccc3ccccc23)[C@@H](C)CN([C@@H](C)CO)C(=O)c2cc(NS(=O)(=O)c3ccc(Cl)cc3)ccc2O1 result=inactive
item_smiles=C=c1cc(C)ccc1=C1NN=C(NC(=O)CC)O1 result=inactive

----------
Tested on: HSkMC
ASSAY OVERVIEW: cytotoxicity call (relative viability < 0.9)
EXPERIMENTAL PARAMETERS: 10 µM
About 1,500 (3.8%) of roughly 39,000 compounds were called active. What follows is part of a selection rich in actives, with near analogues and random picks from the rest.
READOUT TYPE: cytotoxicity call

item_smiles=C[C@H]1CN([C@@H](C)CO)C(=O)c2cccc(NS(=O)(=O)c3cn(C)cn3)c2O[C@@H]1CN(C)CC1CCCCC1 tgt=HSkMC result=inactive
item_smiles=CC(=O)O[C@H]1C=C[C@@H](O)C1 tgt=HSkMC result=inactive
item_smiles=Cn1c(C(=O)N[C@H](CO)Cc2c[nH]c3ccccc23)cc(=O)n(C)c1=O tgt=HSkMC result=inactive
item_smiles=COCC(=O)N1CC[C@]2(CC1)CN([C@@H](CO)c1[nH]c3cc(ccc3c12)OC)S(=O)(=O)C tgt=HSkMC result=inactive
item_smiles=O=C(N[C@@H]1CC[C@@H](CC(=O)N2CCOCC2)O[C@H]1CO)c1ccccn1 tgt=HSkMC result=inactive
item_smiles=Cc1noc(C)c1S(=O)(=O)N(C)C[C@H]1OCc2cnnn2CCCC(=O)N([C@H](C)CO)C[C@H]1C tgt=HSkMC result=inactive
item_smiles=C[C@@H]1CN([C@@H](C)CO)C(=O)c2cc(NS(C)(=O)=O)ccc2O[C@@H]1CN(C)Cc1ccc(C(=O)Nc2ccccc2N)cc1 tgt=HSkMC result=inactive
item_smiles=C[C@H](CO)N1C[C@H](C)[C@@H](CN(C)CC2CCCCC2)Oc2c(NC(=O)c3ccc(-c4nccs4)cc3)cccc2C1=O tgt=HSkMC result=inactive

----------
Tested on: HSkMC (human skeletal muscle cells)
ASSAY OVERVIEW: cytotoxicity call (relative viability < 0.9)
EXPERIMENTAL PARAMETERS: 10 µM
The whole screen tested about 39,000 compounds, of which about 1,500 (3.8%) were called active. Many of the other results were omitted from the sample, so actives are more common in it than they were.
Labels: active, inactive

item_smiles=C[C@@H]1CN([C@@H](C)CO)C(=O)c2cc(NS(=O)(=O)c3ccc(Cl)cc3)ccc2O[C@@H](C)CCCCO[C@@H]1CN(C)Cc1ccc(C(F)(F)F)cc1 class_name=inactive
item_smiles=COCCCNc1ncnc(N)c1[N+](=O)[O-] class_name=inactive
item_smiles=C[C@H](CO)N1C[C@H](C)[C@H](CN(C)S(=O)(=O)c2cn(C)cn2)Oc2ccc(NC(=O)CCCCCC(=O)Nc3ccccc3N)cc2C1=O class_name=inactive
item_smiles=COc1ccc2c3c([nH]c2c1)[C@@H](CO)N(C[C@]13CCN(CC1)Cc1nccs1)C(=O)C1CCOCC1 class_name=inactive
item_smiles=C[C@@H]1CCCCO[C@@H](CN(C)C(=O)NC2CCCCC2)[C@@H](C)CN([C@H](C)CO)C(=O)c2cc(NC(=O)Nc3ccc(C(F)(F)F)cc3)ccc2O1 class_name=active
item_smiles=C[C@@H]1CCCCO[C@H](CN(C)C(=O)NC2CCCCC2)[C@H](C)CN([C@H](C)CO)C(=O)c2cc(NC(=O)Nc3ccc(C(F)(F)F)cc3)ccc2O1 class_name=active
item_smiles=C[C@H]1CCCCO[C@@H](CN(C)Cc2ccc(C(F)(F)F)cc2)[C@@H](C)CN([C@@H](C)CO)C(=O)c2cc(NS(=O)(=O)c3ccc(F)cc3)ccc2O1 class_name=inactive
item_smiles=C[C@@H]1CCCCO[C@@H](CN(C)C(=O)NC2CCCCC2)[C@H](C)CN([C@@H](C)CO)C(=O)c2cc(NC(=O)Nc3ccc(C(F)(F)F)cc3)ccc2O1 class_name=inactive
item_smiles=C[C@H]1CCCCO[C@@H](CN(C)Cc2ccc(C(F)(F)F)cc2)[C@@H](C)CN([C@@H](C)CO)C(=O)c2cc(NS(=O)(=O)c3ccc(Cl)cc3)ccc2O1 class_name=inactive
item_smiles=CN(C)CC(=O)N1[C@@H]2Cn3c(ccc(C4=CCCC4)c3=O)[C@H]1[C@@H](C(=O)NCC1CC1)[C@@H]2CO class_name=inactive
item_smiles=C[C@@H]1CN([C@H](C)CO)C(=O)c2cc(NC(=O)Nc3ccc(C(F)(F)F)cc3)ccc2O[C@H]1CN(C)Cc1ccc(-c2ccccc2)cc1 class_name=active
item_smiles=C[C@@H]1CCCCO[C@H](CN(C)C(=O)Nc2ccccc2)[C@@H](C)CN([C@H](C)CO)C(=O)c2cc(NC(=O)Nc3ccc(F)cc3)ccc2O1 class_name=inactive
item_smiles=COc1ccc(NC(=O)Nc2ccc3c(c2)C(=O)N([C@@H](C)CO)C[C@@H](C)[C@@H](CN(C)C(=O)NC2CCCCC2)OCCCC[C@@H](C)O3)cc1 class_name=active
item_smiles=C[C@H]1CN([C@@H](C)CO)C(=O)c2cccc(NS(=O)(=O)c3cn(C)cn3)c2O[C@H]1CN(C)S(=O)(=O)c1ccc(F)cc1 class_name=inactive
item_smiles=C[C@@H]1CCCCO[C@@H](CN(C)Cc2ccc(C(F)(F)F)cc2)[C@H](C)CN([C@H](C)CO)C(=O)c2cc(NS(=O)(=O)c3ccc(Cl)cc3)ccc2O1 class_name=active
item_smiles=C=C/C=C/[C@@H]1C(=C)CN([C@@H](Cc2ccccc2)C(=O)OC)[C@H]1[C@@H](O)CCn1cc(CCC(=O)NO)nn1 class_name=inactive
item_smiles=C[C@H]1CCCCO[C@@H](CN(C)C(=O)NC2CCCCC2)[C@@H](C)CN([C@@H](C)CO)C(=O)c2cc(NC(=O)Nc3ccc(C(F)(F)F)cc3)ccc2O1 class_name=inactive
item_smiles=C[C@@H]1CCCCO[C@H](CN(C)Cc2ccc(Cl)c(Cl)c2)[C@@H](C)CN([C@H](C)CO)C(=O)c2cc(NC(=O)Nc3ccc(F)cc3)ccc2O1 class_name=inactive
item_smiles=C[C@@H]1CCCCO[C@@H](CN(C)Cc2ccc(C(F)(F)F)cc2)[C@H](C)CN([C@@H](C)CO)C(=O)c2cc(NS(=O)(=O)c3ccc(Cl)cc3)ccc2O1 class_name=active
item_smiles=CS(=O)(=O)N1C[C@H]2COC[C@@]2(C(=O)NCc2ccccn2)C1 class_name=inactive
item_smiles=C[C@@H]1CN([C@H](C)CO)C(=O)c2cc(NC(=O)Nc3ccc(C(F)(F)F)cc3)ccc2O[C@@H]1CN(C)C(=O)NC1CCCCC1 class_name=active
item_smiles=C[C@H](CO)N1C[C@H](C)[C@H](CN(C)S(=O)(=O)c2ccc(Cl)cc2)OCCCC[C@H](C)Oc2ccc(NC(=O)c3ccncc3)cc2C1=O class_name=inactive
item_smiles=C[C@H](CO)N1C[C@H](C)[C@H](CN(C)Cc2ccc(C(F)(F)F)cc2)OCCCC[C@H](C)Oc2ccc(NS(=O)(=O)c3ccc(Cl)cc3)cc2C1=O class_name=active
item_smiles=C[C@@H]1CCCCO[C@@H](CN(C)Cc2ccc(C(F)(F)F)cc2)[C@@H](C)CN([C@H](C)CO)C(=O)c2cc(NS(=O)(=O)c3ccc(Cl)cc3)ccc2O1 class_name=inactive
item_smiles=C[C@H]1CN([C@@H](C)CO)C(=O)c2cc(NC(=O)Nc3ccc(C(F)(F)F)cc3)ccc2O[C@@H]1CN(C)C(=O)NC1CCCCC1 class_name=inactive
item_smiles=CCCC#Cc1cnc2c(c1)C(=O)N([C@H](C)CO)C[C@H](C)[C@@H](CN(C)C(=O)c1ccc3c(c1)OCO3)O2 class_name=inactive
